Measured values drawn from patent US7084268B1 for this set.

- procedure details: Solubility in 62.5% (v/v) aqueous organic solvents, quantification in HPLC
- Type: physicochemical
- applied conditions: aqueous organic solvent, 20 °C, aqueous with cosolvent or surfactant or cyclodextrin, thermodynamic from solid, 62.5% (v/v) diethylene glycol monomethyl ether in water
Where a name gives a salt, the structure may show the parent alone.
assay endpoint: solubility at 30 min (µg/mL)
Respond with the bare value in µg/mL.

Exercise: # return recorded solubility at 30 min for input C[C@@H](O)[C@H]1C(=O)N2C(C(=O)O)=C(S[C@@H]3CN[C@H]([C@H](O)[C@@H]4CCNC4)C3)[C@H](C)[C@H]12 [monohydrate, monohydrochloride monohydrate]
Key: 3930

----------
- procedure details: Solubility in 62.5% (v/v) aqueous organic solvents, quantification in HPLC
- Assay type: physicochemical
- applied conditions: aqueous organic solvent, 20 °C, aqueous with cosolvent or surfactant or cyclodextrin, thermodynamic from solid, 62.5% (v/v) IPA (isopropyl alcohol) in water
Structures can show the parent of a compound that is named as a salt.
assay endpoint: solubility at 30 min (µg/mL)
Please give a number only; it is taken to be in µg/mL.

Exercise: Quickly give me recorded solubility at 30 min for C[C@@H](O)[C@H]1C(=O)N2C(C(=O)O)=C(S[C@@H]3CN[C@H]([C@H](O)[C@@H]4CCNC4)C3)[C@H](C)[C@H]12 [monohydrate, monohydrochloride monohydrate]
Key: 6310

----------
- procedure details: Solubility in 62.5% (v/v) aqueous organic solvents, quantification in HPLC
- Format: physicochemical
- applied conditions: aqueous organic solvent, 20 °C, aqueous with cosolvent or surfactant or cyclodextrin, thermodynamic from solid, 62.5% (v/v) 2-isopropoxyethanol in water
Counter-ions that a name gives are not always drawn.
assay endpoint: solubility at 30 min (µg/mL)
Numeric only. Scale: µg/mL

Exercise: Fill in solubility at 30 min for record C[C@@H](O)[C@H]1C(=O)N2C(C(=O)O)=C(S[C@@H]3CN[C@H]([C@H](O)[C@@H]4CCNC4)C3)[C@H](C)[C@H]12 [monohydrate, monohydrochloride monohydrate]
Key: 6030

----------
- procedure details: Solubility in 62.5% (v/v) aqueous organic solvents, quantification in HPLC
- Type: physicochemical
- applied conditions: aqueous organic solvent, 20 °C, aqueous with cosolvent or surfactant or cyclodextrin, thermodynamic from solid, 62.5% (v/v) dimethyl sulfoxide in water
Counter-ions that a name gives are not always drawn.
assay endpoint: solubility at 30 min (µg/mL)
Note: unit µg/mL is implicit; provide only the numeric part.

Exercise: Please list solubility at 30 min recorded for the molecule C[C@@H](O)[C@H]1C(=O)N2C(C(=O)O)=C(S[C@@H]3CN[C@H]([C@H](O)[C@@H]4CCNC4)C3)[C@H](C)[C@H]12 [monohydrate, monohydrochloride monohydrate]
Key: 7500

----------
- procedure details: Solubility in 62.5% (v/v) aqueous organic solvents, quantification in HPLC
- Format: physicochemical
- applied conditions: aqueous organic solvent, 20 °C, aqueous with cosolvent or surfactant or cyclodextrin, thermodynamic from solid, 62.5% (v/v) 2-ethoxyethanol in water
Structures can show the parent of a compound that is named as a salt.
assay endpoint: solubility at 30 min (µg/mL)
Number only, in µg/mL; omit the unit.

Exercise: Specify measured solubility at 30 min for C[C@@H](O)[C@H]1C(=O)N2C(C(=O)O)=C(S[C@@H]3CN[C@H]([C@H](O)[C@@H]4CCNC4)C3)[C@H](C)[C@H]12 [monohydrate, monohydrochloride monohydrate] .
Key: 6740

----------
- procedure details: Solubility in 62.5% (v/v) aqueous organic solvents, quantification in HPLC
- Format: physicochemical
- applied conditions: aqueous organic solvent, 20 °C, aqueous with cosolvent or surfactant or cyclodextrin, thermodynamic from solid, 62.5% (v/v) 2-methoxyethanol in water
Counter-ions that a name gives are not always drawn.
assay endpoint: solubility at 30 min (µg/mL)
Number in µg/mL, nothing else.

Exercise: Give the value of solubility at 30 min reported for the following: C[C@@H](O)[C@H]1C(=O)N2C(C(=O)O)=C(S[C@@H]3CN[C@H]([C@H](O)[C@@H]4CCNC4)C3)[C@H](C)[C@H]12 [monohydrate, monohydrochloride monohydrate]
Key: 5370

----------
- procedure details: Solubility in 62.5% (v/v) aqueous organic solvents, quantification in HPLC
- Format: physicochemical
- applied conditions: aqueous organic solvent, 20 °C, aqueous with cosolvent or surfactant or cyclodextrin, thermodynamic from solid, 62.5% (v/v) methanol in water
Where a name gives a salt, the structure may show the parent alone.
assay endpoint: solubility at 30 min (mg/mL)
Give the value in mg/mL but do not write mg/mL after it.

Exercise: Specify measured solubility at 30 min for C[C@@H](O)[C@H]1C(=O)N2C(C(=O)O)=C(S[C@@H]3CN[C@H]([C@H](O)[C@@H]4CCNC4)C3)[C@H](C)[C@H]12 [monohydrate, monohydrochloride monohydrate] .
Key: 10.2

----------
- procedure details: Solubility in 62.5% (v/v) aqueous organic solvents, quantification in HPLC
- Type: physicochemical
- applied conditions: aqueous organic solvent, 20 °C, aqueous with cosolvent or surfactant or cyclodextrin, thermodynamic from solid, 62.5% (v/v) ethanol in water
Where a name gives a salt, the structure may show the parent alone.
assay endpoint: solubility at 30 min (µg/mL)
Could you give me the number in µg/mL? Just the number is fine.

Exercise: State its solubility at 30 min: C[C@@H](O)[C@H]1C(=O)N2C(C(=O)O)=C(S[C@@H]3CN[C@H]([C@H](O)[C@@H]4CCNC4)C3)[C@H](C)[C@H]12 [monohydrate, monohydrochloride monohydrate]
Key: 6600

----------
- procedure details: Solubility in 62.5% (v/v) aqueous organic solvents, quantification in HPLC
- Type: physicochemical
- applied conditions: aqueous organic solvent, 20 °C, aqueous with cosolvent or surfactant or cyclodextrin, thermodynamic from solid, 62.5% (v/v) dimethyl formamide in water
Counter-ions that a name gives are not always drawn.
assay endpoint: solubility at 30 min (µg/mL)
Please give a number only; it is taken to be in µg/mL.

Exercise: Using the record for C[C@@H](O)[C@H]1C(=O)N2C(C(=O)O)=C(S[C@@H]3CN[C@H]([C@H](O)[C@@H]4CCNC4)C3)[C@H](C)[C@H]12 [monohydrate, monohydrochloride monohydrate] , state its measured solubility at 30 min.
Key: 5030
